- assayName: Cell growth assay, WST-8 (compounds B1-B126)
- Assay type: cell-based
- reportedConditions: 96 h; T47D cell line, WST-8, 4 days; read-out: Cell growth inhibition in T47D cell line IC50
- Description: Cell Growth Assay. The cells are seeded at certain concentration (e.g., at 1500/well) in multi-well plates overnight. Cells are subsequently treated with the compounds. […] The absorbance is measured on each sample using a microplate reader at certain wavelength (e.g., 450 nm). The relative absorbance is calculated against the vehicle control from three individually repeats. Cell Growth Assay. […] The absorbance was measured of each sample using a microplate reader at a wavelength of 450 nm. […]
measuredEndpoint: IC50

Q. Give IC50 for the following molecule: C[C@@H]1Cc2c(ccc3[nH]ncc23)[C@@H](c2c(F)cc(N3CCC(CN4CCC5(CC4)COc4c5ccc5c4CN(C4CCC(=O)NC4=O)C5=O)CC3)cc2F)N1CC(F)F (some centres unmarked)
A. < 1 nM

Q. Supply measured IC50 of C[C@@H]1Cc2c(ccc3[nH]ncc23)[C@@H](c2c(F)cc(N3CCC(CN4CCC5(CCOc6c5ccc5c6CN(C6CCC(=O)NC6=O)C5=O)CC4)CC3)cc2F)N1CC(F)F (some centres unmarked) in your reply.
A. < 1 nM

Q. Please supply the value of reported IC50 for the item C[C@@H]1Cc2c(ccc3[nH]ncc23)[C@@H](c2ccc(N3CC4(CCC(CN5CCN6c7ccc8c(c7OC[C@@H]6C5)CN(C5CCC(=O)NC5=O)C8=O)CC4)C3)cn2)N1CC(F)F (some centres unmarked)
A. 1 to 10 nM

Q. Query IC50 for C[C@@H]1Cc2c(ccc3[nH]ncc23)[C@@H](c2ccc(N3CCC4(CCC(CN5CCN6c7ccc8c(c7OCC6C5)CN([C@H]5CCC(=O)NC5=O)C8=O)CO4)CC3)nn2)N1CC(F)(F)F (some centres unmarked)
A. < 1 nM

Q. For the molecule C[C@@H]1Cc2c(ccc3[nH]ncc23)[C@@H](c2c(F)cc(N3CC4(CCN(C(=O)CN5CCN6c7cc8c(cc7OC[C@@H]6C5)C(=O)N(C5CCC(=O)NC5=O)C8)C4)C3)cc2F)N1CC(F)F (some centres unmarked) , give its reported IC50.
A. < 1 nM

* * *

- testedTarget: ER (Homo sapiens, UniProt P03372)
- Construct: endogenous in cells; probably T47D or MCF-7
- Sequence (P03372 1-595): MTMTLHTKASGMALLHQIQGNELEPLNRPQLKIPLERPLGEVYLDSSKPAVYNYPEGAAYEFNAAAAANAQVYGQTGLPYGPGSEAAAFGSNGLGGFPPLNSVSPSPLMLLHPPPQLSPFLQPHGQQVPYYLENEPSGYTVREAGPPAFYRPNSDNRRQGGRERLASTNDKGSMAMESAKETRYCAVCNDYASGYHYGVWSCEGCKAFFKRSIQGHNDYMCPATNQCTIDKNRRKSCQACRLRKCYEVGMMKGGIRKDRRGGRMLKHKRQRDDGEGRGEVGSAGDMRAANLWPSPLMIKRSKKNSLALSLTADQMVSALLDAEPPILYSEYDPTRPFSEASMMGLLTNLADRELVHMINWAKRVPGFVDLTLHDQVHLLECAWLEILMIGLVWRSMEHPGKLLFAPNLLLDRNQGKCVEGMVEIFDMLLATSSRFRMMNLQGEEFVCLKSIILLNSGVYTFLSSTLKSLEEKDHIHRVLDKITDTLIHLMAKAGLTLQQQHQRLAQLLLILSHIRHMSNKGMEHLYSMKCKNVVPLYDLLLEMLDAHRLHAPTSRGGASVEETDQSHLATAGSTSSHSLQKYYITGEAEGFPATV
- assayName: In-cell western blot analysis, relative ER percentage (compounds B1-B126)
- Format: cell-based
- reportedConditions: ER degradation, 16 hours, read-out: ICW DC50
// DC50 lookup, one value per entry

1) C[C@@H]1Cc2c(ccc3[nH]ncc23)[C@@H](c2c(F)cc(N3CC4(CN(C(=O)CN5CCN6c7cc8c(cc7OC[C@@H]6C5)C(=O)N(C5CCC(=O)NC5=O)C8)C4)C3)cc2F)N1CC(F)F (stereo partly drawn) :: < 10 nM
2) C[C@@H]1Cc2c(ccc3[nH]ncc23)[C@@H](c2c(F)cc(N3CCN(CC(=O)N4CCN5c6cc7c(cc6OC[C@@H]5C4)C(=O)N(C4CCC(=O)NC4=O)C7)CC3)cc2F)N1CC(F)F (stereo partly drawn) :: < 10 nM

Q. Report DC50, nothing else, for this compound: C[C@@H]1Cc2c(ccc3[nH]ncc23)[C@@H](c2ccc(N3CCC4(CC3)CC(CN3CCN5c6cc7c(cc6OC[C@@H]5C3)C(=O)N(C3CCC(=O)NC3=O)C7)CO4)cn2)N1CC(F)(F)F (stereo partly drawn)
A. < 10 nM

* * *

Values of pIC50 reported for UniProt:P03372 appear below.
pIC50: −log10 of the molar value.

Q. System UniProt:P03372. Read-out pIC50. Item C[C@@H]1Cc2c(ccc3[nH]ncc23)[C@@H](c2ccc(N3CCC4(CC3)CC(CN3CCN5c6ccc7c(c6OC[C@H]5C3)CN([C@H]3CCC(=O)NC3=O)C7=O)CO4)nc2)N1CC(F)(F)F (some centres unmarked) [Compound A22] . Report value.
A. > 8.00

Q. Identify measured pIC50 obtained with UniProt:P03372 for C[C@@H]1Cc2c(ccc3[nH]ncc23)C(c2ccc(N3CCC4(CC3)CC(CN3CCN5c6ccc7c(c6OC[C@H]5C3)CN([C@H]3CCC(=O)NC3=O)C7=O)C4)nc2)N1CC(F)(F)F (stereo in doubt) [Compound A25] .
A. > 8.00

Q. Give pIC50; test system UniProt:P03372; compound C[C@@H]1Cc2c(ccc3[nH]ncc23)[C@@H](c2ccc(N3CC4(CCC(CN5CCN6c7ccc8c(c7OC[C@H]6C5)CN(C5CCC(=O)NC5=O)C8=O)CC4)C3)cn2)N1CC1(F)CC1 (some centres unmarked) [Compound A16]
A. > 8.00

Q. Look up UniProt:P03372 data: pIC50 of C[C@@H]1Cc2c(ccc3[nH]ncc23)[C@@H](c2ccc(N3CCC4(CC3)CC(CN3CCN5c6ccc7c(c6OC[C@H]5C3)CN([C@H]3CCC(=O)NC3=O)C7=O)C4)cn2)N1CC1(F)CC1 [Compound A4] , then report it.
A. > 8.00

Q. Specify the recorded pIC50 for C[C@@H]1Cc2c(ccc3[nH]ncc23)[C@H](c2ccc(N3CCC4(CC3)CC(CN3CCN5c6ccc7c(c6OC[C@H]5C3)CN([C@H]3CCC(=O)NC3=O)C7=O)CO4)nc2)N1CC(F)(F)F (some centres unmarked) [Compound A21] , system: UniProt:P03372.
A. > 8.00

* * *

- assayName: Cell growth assay, WST-8 (compounds B1-B126)
- Type: cell-based
- reportedConditions: 96 h; T47D cell line, WST-8, 4 days; read-out: Cell growth inhibition in T47D cell line IC50
- Description: Cell Growth Assay. The cells are seeded at certain concentration (e.g., at 1500/well) in multi-well plates overnight. Cells are subsequently treated with the compounds. […] The absorbance is measured on each sample using a microplate reader at certain wavelength (e.g., 450 nm). The relative absorbance is calculated against the vehicle control from three individually repeats. Cell Growth Assay. […] The absorbance was measured of each sample using a microplate reader at a wavelength of 450 nm. […]
Measured IC50 of individual entries

Worked examples follow.
1) COc1cc(N2CCC3(CC2)CC(CN2CCN4c5cc6c(cc5OC[C@H]4C2)C(=O)N(C2CCC(=O)NC2=O)C6)C3)ccc1[C@@H]1c2ccc3[nH]ncc3c2C[C@@H](C)N1CC(F)F (stereo partly shown) :: 1 to 10 nM
2) C[C@@H]1Cc2c(ccc3[nH]ncc23)[C@@H](c2ccc(N3CCC4(CC3)CN(C(=O)CN3Cc5cc6c(cc5C3)C(=O)N(C3CCC(=O)NC3=O)C6=O)CCO4)cn2)N1CC(F)(F)F (stereo partly shown) :: 1 to 10 nM
3) C[C@@H]1Cc2c(ccc3[nH]ncc23)[C@@H](c2ccc(N3CCC4(CC3)CC(CN3CCN5c6ccc7c(c6OC[C@H]5C3)CN(C3CCC(=O)NC3=O)C7=O)C4)cn2)N1CC(F)(F)F (stereo partly shown) :: < 1 nM
4) C[C@@H]1Cc2c(ccc3[nH]ncc23)[C@@H](c2c(F)cc(N3CC4(CN(CC(=O)N5CCN6c7cc8c(cc7OC[C@@H]6C5)C(=O)N(C5CCC(=O)NC5=O)C8)C4)C3)cc2F)N1CC(F)F (stereo partly shown) :: < 1 nM
5) C[C@@H]1Cc2c(ccc3[nH]ncc23)[C@@H](c2ccc(N3CCC4(CC3)CC(CN3CCN5c6cc7c(cc6N(C)C[C@@H]5C3)C(=O)N(C3CCC(=O)NC3=O)C7)C4)cn2)N1CC(F)(F)F (stereo partly shown) :: < 1 nM

Q. Given C[C@@H]1Cc2c(ccc3[nH]ncc23)[C@@H](c2ccc(N3CCC(CN4CCN5c6ccc(C(=O)N[C@H]7CCC(=O)NC7=O)nc6OC[C@H]5C4)CC3)cn2)N1CC(F)(F)F , respond with its IC50.
A. 1 to 10 nM

Q. State its IC50 for this compound: C[C@@H]1Cc2c(ccc3[nH]ncc23)[C@@H](c2cnc(N3CCC4(CCC(CN5CCC6(CC5)COc5c6ccc6c5CN([C@H]5CCC(=O)NC5=O)C6=O)CO4)CC3)nc2)N1CC(F)(F)F (stereo partly shown)
A. < 1 nM

Q. Let me know recorded IC50 for C[C@@H]1Cc2c(ccc3[nH]ncc23)[C@@H](c2ccc(N3CCC4(CC3)CC(CN3CCC5(CC3)COc3c5ccc5c3CN(C3CCC(=O)NC3=O)C5=O)CO4)cn2)N1CC(F)(F)F (stereo partly shown) , thanks.
A. < 1 nM

Q. Return reported IC50. Input compound: COc1cc(N2CC3(CCC(CN4CCN5c6ccc7c(c6OC[C@@H]5C4)CN(C4CCC(=O)NC4=O)C7=O)CC3)C2)ccc1[C@@H]1c2ccc3[nH]ncc3c2C[C@@H](C)N1CC(F)F (stereo partly shown)
A. > 10 nM

Q. State, in one line, measured IC50 of C[C@@H]1Cc2c(ccc3[nH]ncc23)[C@@H](c2cnc(N3CCC4(CC3)CC(CN3CCN5c6ccc7c(c6OC[C@H]5C3)CN(C3CCC(=O)NC3=O)C7=O)C4)nc2)N1CC(F)(F)F (stereo partly shown)
A. < 1 nM
